# experimental system: MTP (Homo sapiens)
# Sequence (P55157 19-894, species assumed): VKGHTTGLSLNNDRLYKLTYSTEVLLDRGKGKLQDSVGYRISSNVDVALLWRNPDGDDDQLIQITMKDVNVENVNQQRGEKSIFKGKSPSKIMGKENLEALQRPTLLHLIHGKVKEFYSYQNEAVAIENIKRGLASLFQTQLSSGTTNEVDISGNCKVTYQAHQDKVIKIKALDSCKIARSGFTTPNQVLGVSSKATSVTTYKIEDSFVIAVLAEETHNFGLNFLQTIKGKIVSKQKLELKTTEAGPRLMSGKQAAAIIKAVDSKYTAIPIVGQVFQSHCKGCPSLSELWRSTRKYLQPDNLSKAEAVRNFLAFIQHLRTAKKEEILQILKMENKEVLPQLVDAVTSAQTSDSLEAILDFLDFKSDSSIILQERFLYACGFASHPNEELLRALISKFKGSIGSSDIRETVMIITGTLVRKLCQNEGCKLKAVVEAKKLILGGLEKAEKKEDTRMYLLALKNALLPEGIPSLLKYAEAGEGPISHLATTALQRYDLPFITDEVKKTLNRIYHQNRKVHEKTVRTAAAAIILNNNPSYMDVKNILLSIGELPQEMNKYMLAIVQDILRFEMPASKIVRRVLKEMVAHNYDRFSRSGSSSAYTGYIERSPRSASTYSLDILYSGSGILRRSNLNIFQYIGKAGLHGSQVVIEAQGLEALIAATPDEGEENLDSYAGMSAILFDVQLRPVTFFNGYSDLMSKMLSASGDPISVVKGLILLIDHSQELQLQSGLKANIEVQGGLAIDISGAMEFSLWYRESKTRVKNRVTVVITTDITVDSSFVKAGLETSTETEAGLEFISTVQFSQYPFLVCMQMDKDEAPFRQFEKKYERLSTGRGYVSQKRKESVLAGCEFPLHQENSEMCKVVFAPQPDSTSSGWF
# Sequence (P07237 18-508 partner, species assumed): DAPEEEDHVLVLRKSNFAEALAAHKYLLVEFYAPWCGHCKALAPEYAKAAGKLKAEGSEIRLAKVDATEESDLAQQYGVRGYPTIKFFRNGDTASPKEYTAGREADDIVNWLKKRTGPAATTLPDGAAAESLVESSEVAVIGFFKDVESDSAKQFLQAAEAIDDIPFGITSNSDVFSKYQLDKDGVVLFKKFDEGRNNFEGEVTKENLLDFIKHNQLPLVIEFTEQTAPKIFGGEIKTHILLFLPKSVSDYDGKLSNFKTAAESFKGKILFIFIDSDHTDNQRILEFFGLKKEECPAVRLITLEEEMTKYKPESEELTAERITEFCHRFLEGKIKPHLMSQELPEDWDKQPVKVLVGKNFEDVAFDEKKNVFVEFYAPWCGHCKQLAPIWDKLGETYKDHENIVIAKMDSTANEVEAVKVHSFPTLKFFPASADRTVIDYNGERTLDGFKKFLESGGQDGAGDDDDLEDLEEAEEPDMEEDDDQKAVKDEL
# assay details: MTP assay (triglyceride transfer from donor to acceptor vesicles)
# Type: biochemical
# assay conditions: MTP activity, percent triglyceride transfer, 37° C.; read-out: pIC50 values (= −log IC50 value) (converted)
# Experimental: MTP activity was measured using an assay similar to one described by J. R. Wetterau and D. B. Zilversmit in Chemistry and Physics of Lipids, 38, 205-222 (1985). To prepare the donor and acceptor vesicles, the appropriate lipids in chloroform were put into a glass test tube and dried under a stream of N2. […] An aliquot of the supernatant containing the acceptor liposomes was counted and the [^14C]-counts were used to calculate the percent triglyceride transfer from donor to acceptor vesicles. […]
recorded endpoint: IC50

{"mol smiles": "COC(=O)[C@H](CCCCN)NC(=O)CC1CCN(c2ccc(NC(=O)c3ccccc3-c3ccc(C(F)(F)F)cc3)cc2)CC1", "recorded endpoint": "IC50", "observed result": "> 100 nM"}
{"mol smiles": "CCOC(=O)C1CCN(C(=O)CC2CCN(c3ccc(NC(=O)c4ccccc4-c4ccc(C(F)(F)F)cc4)cc3)CC2)CC1", "recorded endpoint": "IC50", "observed result": "> 100 nM"}
{"mol smiles": "CCOC(=O)[C@@H](NC(=O)CC1CCN(c2ccc(NC(=O)c3ccccc3-c3ccc(C(F)(F)F)cc3)cc2)CC1)C(C)C", "recorded endpoint": "IC50", "observed result": "> 100 nM"}

----------
# experimental system: MTP (Homo sapiens)
# assay details: MTP assay (triglyceride transfer from donor to acceptor vesicles)
# Type: biochemical
# assay conditions: MTP activity, percent triglyceride transfer, 37° C.; read-out: pIC50 values (= −log IC50 value) (converted)
Listed below: IC50 values for each entry.
recorded endpoint: IC50

{"mol smiles": "COC(=O)[C@@H]1C[C@H](O)CN1C(=O)CC1CCN(c2ccc(NC(=O)c3ccccc3-c3ccc(C(F)(F)F)cc3)cc2)CC1", "recorded endpoint": "IC50", "observed result": "> 100 nM"}
{"mol smiles": "COC(=O)[C@H](CCN)NC(=O)CC1CCN(c2ccc(NC(=O)c3ccccc3-c3ccc(C(F)(F)F)cc3)cc2)CC1", "recorded endpoint": "IC50", "observed result": "> 100 nM"}
{"mol smiles": "COC(=O)[C@@H]1CCCCN1C(=O)CC1CCN(c2ccc(NC(=O)c3ccccc3-c3ccc(C(F)(F)F)cc3)cc2)CC1", "recorded endpoint": "IC50", "observed result": "> 100 nM"}

----------
# experimental system: MTP (Homo sapiens)
# assay details: MTP assay (triglyceride transfer from donor to acceptor vesicles)
# Format: biochemical
# assay conditions: MTP activity, percent triglyceride transfer, 37° C.; read-out: pIC50 values (= −log IC50 value) (converted)

{"compound": "COC(=O)C1C[C@@H](O)CN1C(=O)CC1CCN(c2ccc(NC(=O)c3ccccc3-c3ccc(C(F)(F)F)cc3)cc2)CC1 (stereo partly drawn)", "experimental system": "MTP (Homo sapiens)", "IC50": "> 100 nM"}
{"compound": "CCOC(=O)C1CCCCN1C(=O)CC1CCN(c2ccc(NC(=O)c3ccccc3-c3ccc(C(F)(F)F)cc3)cc2)CC1 (stereo not drawn)", "experimental system": "MTP (Homo sapiens)", "IC50": "> 100 nM"}
{"compound": "COC(=O)[C@H](CCCN)NC(=O)CC1CCN(c2ccc(NC(=O)c3ccccc3-c3ccc(C(F)(F)F)cc3)cc2)CC1", "experimental system": "MTP (Homo sapiens)", "IC50": "> 100 nM"}
